- target-or-test-system: PLK3 (human)
- assay-explanation: KINOMEscan competition binding
- setup-conditions: compound 10.0 µM
experimental-endpoint: kinase still bound, per cent of control (%)
Only the number, expressed in %, is required.

Some entries whose results are on file:
| compound-structure-string | measurement-unit | kinase still bound, per cent of control |
| --- | --- | --- |
| CNC(=O)Nc1ccc(-c2nc(N3CC4CCC(C3)O4)c3cnn(C4CCC5(CC4)OCCO5)c3n2)cc1 | % | 100 |
| CCCS(=O)(=O)Nc1ccc(F)c(C(=O)c2c[nH]c3ncc(Cl)cc23)c1F | % | 96 |
| CC(=O)c1c(C)c2cnc(Nc3ccc(N4CCNCC4)cn3)nc2n(C2CCCC2)c1=O | % | 19 |
| COc1cc2c(Nc3ccc(NC(=O)c4ccccc4)cc3)ncnc2cc1OCCCN1CCOCC1 | % | 99 |
| COc1cc2ncnc(Nc3cccc(Cl)c3)c2cc1OC | % | 85 |
| N#Cc1cc(-c2ccnc(Nc3ccc(-n4cnc(-c5cccnc5)n4)cc3)n2)cc(N2CCOCC2)c1 | % | 93 |
| CCc1nc(-c2cccc(C)c2)c(-c2ccnc(NC(=O)c3ccccc3)c2)s1 | % | 98 |
| COc1ccc(N(C(=O)Oc2cc(C(=O)Nc3cccc(C(F)(F)F)c3)ccc2C)c2ccnc(Nc3ccc(N4CCN(C)CC4)cc3)n2)c(OC)c1 | % | 100 |

Here is another compound to look at.
## Input Specify kinase still bound, per cent of control for "O=c1[nH]c2ccccc2n1C1CCN(Cc2ccc(-c3nc4cc5[nH]cnc5cc4nc3-c3ccccc3)cc2)CC1" and stop.
## Output 94

---

- target-or-test-system: NUAK2 (human)
- assay-explanation: KINOMEscan competition binding
- setup-conditions: compound 10.0 µM
experimental-endpoint: kinase still bound, per cent of control (%)
Only the number, expressed in %, is required.

Some entries whose results are on file:
| compound-structure-string | numeric-value |
| --- | --- |
| CC(=O)c1c(C)c2cnc(Nc3ccc(N4CCNCC4)cn3)nc2n(C2CCCC2)c1=O | 1 |
| CCOc1cc(N2CCC(O)CC2)ccc1Nc1ncc2c(n1)N(C)c1ccccc1C(=O)N2C | 100 |
| COc1ccc(N(C(=O)Oc2cc(C(=O)Nc3cccc(C(F)(F)F)c3)ccc2C)c2ccnc(Nc3ccc(N4CCN(C)CC4)cc3)n2)c(OC)c1 | 100 |

## Input Specify kinase still bound, per cent of control for "Cc1cn(-c2cc(C(=O)Nc3ccc(C)c(NC(=O)c4ccno4)c3)cc(C(F)(F)F)c2)cn1" and stop.
## Output 100

## Input Specify kinase still bound, per cent of control for "CCN(CCO)CCCOc1ccc2c(Nc3cc(CC(=O)Nc4cccc(F)c4)[nH]n3)ncnc2c1" and stop.
## Output 54

## Input Specify kinase still bound, per cent of control for "CCN1CCN(Cc2ccc(NC(=O)c3ccc(C)c(/C=C/c4cnc5[nH]ccc5c4OC)c3)cc2C(F)(F)F)CC1" and stop.
## Output 95

## Input Specify kinase still bound, per cent of control for "N#Cc1cc(-c2ccnc(Nc3ccc(-n4cnc(-c5cccnc5)n4)cc3)n2)cc(N2CCOCC2)c1" and stop.
## Output 57

## Input Specify kinase still bound, per cent of control for "CCCS(=O)(=O)Nc1ccc(F)c(C(=O)c2c[nH]c3ncc(Cl)cc23)c1F" and stop.
## Output 41
